# Test system: HL60 cells
# experimental-protocol: AsedaSciences SYSTEMETRIC Cell Health Screen (flow cytometry toxicity profiling)
# settings: HL60, 4 h, 5 nM–100 µM, probability (0–1) of high-risk class, n = 2
# cutoff 0.8 applies to CHI: Cell Health Index; >= gives yes (1), < gives no (0)

{"columns": ["molecule", "assigned-category"],
 "data": [
  ["C#Cc1ccc(F)c(Nc2ncnc3ccc(I)cc23)c1", "no (0)"],
  ["C#Cc1cccc(Nc2ccnc3cc(I)ccc23)c1F", "no (0)"],
  ["C#Cc1cc(Nc2ncnc3cc(I)ccc23)ccc1F", "no (0)"],
  ["C#Cc1ccc(F)c(Nc2ncnc3cc(I)ccc23)c1", "yes (1)"],
  ["CN(C)C/C=C/C(=O)Nc1cc2c(Nc3ccc(F)c(Cl)c3)ncnc2cc1O[C@H]1CCOC1 [Afatinib, reference compound]", "yes (1)"],
  ["C#Cc1cccc(Nc2c(C#N)cnc3ccc(I)cc23)c1", "no (0)"],
  ["CS(=O)(=O)CCNCc1ccc(-c2ccc3ncnc(Nc4ccc(OCc5cccc(F)c5)c(Cl)c4)c3c2)o1 [Lapatinib, reference compound]", "yes (1)"],
  ["C#Cc1cccc(Nc2ncnc3ccc(C)cc23)c1", "no (0)"],
  ["C#Cc1cc(Nc2ncnc3cc(OC)c(OC)cc23)ccc1Cl", "no (0)"],
  ["Clc1cccc(Cl)c1N=C1NCCN1 [Clonidine, reference compound]", "no (0)"],
  ["C#Cc1cccc(Nc2ncnc3ccccc23)c1", "no (0)"],
  ["C#Cc1cccc(Nc2ncnc3cc(I)ccc23)c1", "no (0)"],
  ["C#Cc1cccc(Nc2ncnc3cc(F)ccc23)c1", "no (0)"],
  ["C#Cc1cc(Nc2ncnc3ccc(I)cc23)ccc1Cl", "no (0)"],
  ["C#Cc1cccc(Nc2ncnc3ccc(F)cc23)c1", "no (0)"],
  ["C#Cc1ccc(F)c(Nc2ncnc3cc(OC)c(OC)cc23)c1", "no (0)"],
  ["CC1(C)NC(=O)N(c2ccc([N+](=O)[O-])c(C(F)(F)F)c2)C1=O [Nilutamide, reference compound]", "no (0)"],
  ["C#Cc1cccc(Nc2ncnc3ccc(C(F)(F)F)cc23)c1", "no (0)"],
  ["C#Cc1cccc(Nc2ncnc3cc4c(cc23)OCCO4)c1", "no (0)"],
  ["C#Cc1cccc(Nc2ncnc3ccc(S(C)(=O)=O)cc23)c1", "no (0)"],
  ["COc1cc2c(Nc3ccc(Cl)c(Cl)c3F)ncnc2cc1OC[C@@H]1C[C@@H]2CN(C)C[C@@H]2C1 [Tesevatinib, reference compound]", "yes (1)"]
]}
